The values you see were collected from the RNAGym collection of RNA variant scans (doi:10.1073/pnas.2313332121).

B1: TPR 5TU (parent)
chain: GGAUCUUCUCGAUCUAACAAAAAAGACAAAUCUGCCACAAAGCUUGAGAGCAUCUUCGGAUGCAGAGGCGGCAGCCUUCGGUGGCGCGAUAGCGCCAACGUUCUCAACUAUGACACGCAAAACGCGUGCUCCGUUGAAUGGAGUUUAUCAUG

- Variants of: B1
- test name: polymerase ribozyme fitness, log enrichment relative to wild type (log ratio); higher = more active; in vitro selection for triplet polymerase activity
Fewer inactive variants are shown than the library holds.
The label depends only on polymerase ribozyme fitness (log ratio): TRUE if it is at least -3, FALSE if it is smaller.

mutant: A12U C35A U44A G92C U127A C129G G143A U151C
category: FALSE
--
mutant: A52G G74C C96U U144G
category: FALSE
--
mutant: G48A G59A G88C A106G U148C
category: FALSE

# input # check: polymerase ribozyme fitness (log ratio) of C10U U109G A142C C149A is greater than or equal to -3
# output FALSE

# input # check: polymerase ribozyme fitness (log ratio) of A28C U31G A41U G65A C85G G88U C96U C103U U135G is greater than or equal to -3
# output FALSE

# input # check: polymerase ribozyme fitness (log ratio) of C69U G136A A142U is greater than or equal to -3
# output TRUE

# input # check: polymerase ribozyme fitness (log ratio) of A39U G86U C114U A120U G140A is greater than or equal to -3
# output FALSE

# input # check: polymerase ribozyme fitness (log ratio) of G84A C95G G141C is greater than or equal to -3
# output TRUE

# input # check: polymerase ribozyme fitness (log ratio) of A89C is greater than or equal to -3
# output TRUE

# input # check: polymerase ribozyme fitness (log ratio) of A40G A41G U53G C85A U127G C131U G143A is greater than or equal to -3
# output FALSE
